- SYSTEM_NAME: T1, 4H741-bA
- T1 chain: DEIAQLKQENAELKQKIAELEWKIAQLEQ
- TEST_METHOD_NOTES: two-hybrid library CCNG1;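 note: natural log of median RNA to DNA barcode read ratio; higher means stronger binding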
OBSERVED_PROPERTY: interaction score

Field: example entries. Status: answers known.
- DEIAQLEQKIAELEQKNAELKWKNAQLEQ [4H319-bA]: -0.873
- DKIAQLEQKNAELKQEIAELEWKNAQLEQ [4H2503-bA]: -0.407
- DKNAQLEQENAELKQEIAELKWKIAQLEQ [4H3277-bA]: -1.81
- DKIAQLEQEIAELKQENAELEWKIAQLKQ [4H2134-bA]: -1.46

(a) DEIAQLEQKNAELKQKIAELKWENAQLKQ [4H492-bA]
(b) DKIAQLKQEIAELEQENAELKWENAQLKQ [4H2588-bA]
Compare a and b by numeric interaction score and name the larger one. Write down the label attached to your selection.
b
